Data origin, for the record: patent US20070179154A1

Measured melting point of individual entries

Below are worked cases with known answers.
# Molecule, Quantity measured, Result
rows = [
    ("Cc1cc2c(-c3cccc(CCC(=O)O)c3)c(CC(=O)Nc3ccc(F)cc3C(F)(F)F)c(=O)oc2cc1Cl", "melting point", "212 to 214 °C"),
    ("Cc1cc2c(-c3cccc(/C=C/c4nnn[nH]4)c3)c(CC(=O)Nc3ccc(F)cc3C(F)(F)F)c(=O)oc2cc1Cl", "melting point", "216 to 218 °C"),
    ("CCOC(=O)CCc1cccc(-c2c(CC(=O)Nc3ccc(F)cc3C(F)(F)F)c(=O)oc3cc(Cl)c(C)cc23)c1", "melting point", "121 to 123 °C"),
    ("O=C(Cc1c(-c2cccc(C(=O)O)c2)c2cc(CN3CCN(c4ccccc4)CC3)c(Cl)cc2oc1=O)Nc1ccc(Cl)cc1C(F)(F)F", "melting point", "151 to 153 °C"),
    ("O=C(Cc1c(-c2cccc(C(=O)O)c2)c2cc(CN3CCN(c4ccccc4)CC3)c(Cl)cc2oc1=O)Nc1ccc(F)cc1C(F)(F)F", "melting point", "149 to 151 °C"),
    ("CCOC(=O)CCc1cccc(-c2c(CC(=O)Nc3ccc(F)cc3C(F)(F)F)c(=O)oc3cc(C)c(Cl)cc23)c1", "melting point", "158 to 160 °C"),
]

query: # return recorded melting point for entry Cc1cc2c(-c3cccc(C(=O)O)c3)c(CC(=O)Nc3ccc(Cl)cc3C(F)(F)F)c(=O)oc2cc1Cl
result: 270 to 272 °C

query: Consider the compound CCOC(=O)/C=C/c1cccc(-c2c(CC(=O)Nc3ccc(F)cc3C(F)(F)F)c(=O)oc3cc(Cl)ccc23)c1 and give its recorded melting point.
result: 166 to 169 °C

query: Name the recorded melting point of the item O=C(O)CCc1cccc(-c2c(CC(=O)Nc3ccc(Cl)cc3C(F)(F)F)c(=O)oc3cc(Cl)c(CN4CCN(c5ccccc5)CC4)cc23)c1 in your answer.
result: 207 to 209 °C

query: Return melting point (reported value) for this compound: O=C(O)CCc1cccc(-c2c(CC(=O)Nc3ccc(F)cc3C(F)(F)F)c(=O)oc3cc(Cl)c(F)cc23)c1
result: 198 to 200 °C

query: Specify reported melting point for the compound shown: COC(=O)c1cccc(-c2c(CC(=O)Nc3ccc(Cl)cc3C(F)(F)F)c(=O)oc3cc(Cl)c(CN4CCN(c5ccccc5)CC4)cc23)c1
result: 130 to 132 °C

query: Give recorded melting point. Cc1cc2c(-c3cccc(-c4noc(=O)[nH]4)c3)c(CC(=O)Nc3ccc(F)cc3C(F)(F)F)c(=O)oc2cc1Cl
result: 285 to 287 °C

query: Return melting point (reported value) for this compound: CCOC(=O)/C=C/c1cccc(-c2c(CC(=O)Nc3ccc(F)cc3C(F)(F)F)c(=O)oc3cc(C)c(Cl)cc23)c1
result: 206 to 209 °C
